Below are IC50 measurements against UniProt:P06493 drawn from the literature.
One number for each entry, in µM.

{"columns": ["smiles entry", "unit of measurement", "number"],
 "data": [
  ["CCNCc1cncc(-c2cnc3[nH]nc(-c4nc5c(COC)cccc5[nH]4)c3c2)c1", "µM", 0.0098],
  ["COc1ccc2nc(-c3n[nH]cc3C=Cc3cccnc3)[nH]c2c1", "µM", 0.0328]
]}

Consider now this further molecule.
q: Reported IC50, molecule Cc1n[nH]c2c(NCc3ccc(Cl)cc3)ncnc12 : ____
a: 20

----------
Below are IC50 measurements against Cyclin-dependent kinase 1 (Homo sapiens, UniProt P06493) drawn from the literature.
Numbers only, in µM.

Worked set:
{"columns": ["compound", "IC50 [µM]"],
 "data": [
  ["COC(=O)[C@@]1(N)CC2OC1(C)n1c3ccccc3c3c4c(c5c6ccccc6n2c5c31)C(=O)NC4 (some centres unmarked)", 0.26],
  ["CN(C)C(=O)c1sc2cnc(Nc3ccc(N4CCNCC4)cn3)cc2c1C1CCC(F)(F)C1 (centres unmarked)", 3.68],
  ["Cc1n[nH]c2c(Nc3ccc(Cl)c(N)c3)ncnc12", 27],
  ["CC(C)N1CCOc2c(F)cc(-c3nc(Nc4ccc5c(n4)CCNC5)ncc3F)cc21", 0.069]
]}

Consider now this further compound.
q: Reported IC50, compound COCc1cccc2[nH]c(-c3n[nH]c4ncc(-c5cncc(CN)c5)cc34)nc12 : ____
a: 0.0427

----------
Below are pIC50 measurements against Cyclin-dependent kinase 1 (Homo sapiens) drawn from the literature.
pIC50: −log10 of the molar value.

Worked set:
{"columns": ["smiles entry", "pIC50"],
 "data": [
  ["CN(C)CCNC(=O)c1ccc(-c2c(F)cnc3[nH]c4cnc(-c5cccnc5)cc4c23)cc1", "6.00 to 7.00"],
  ["COCc1cccc2[nH]c(-c3n[nH]c4ncc(-c5ccncc5)cc34)nc12", "< 6.00"]
]}

Consider now this further molecule.
q: Reported pIC50, molecule CCc1c(N[C@H]2CC[C@H](N)CC2)nc2ccnn2c1Nc1ccc(SC)cc1 : ____
a: > 4.00

----------
Below are pIC50 measurements against Cyclin-dependent kinase 1 (Homo sapiens) drawn from the literature.
pIC50: −log10 of the molar value.

Worked set:
{"columns": ["smiles entry", "pIC50"],
 "data": [
  ["O=S(=O)(NCCO)c1ccc(Nc2nc(Nc3ccccc3)c3cnoc3n2)cc1", "< 4.00"],
  ["COCCN1CCN(C(=O)c2ccc(-c3c(F)cnc4[nH]c5cnc(-c6cccnc6)cc5c34)cc2)CC1", "5.30 to 6.00"],
  ["COCc1nn(C(C)C)c2c1CCc1cnc(Nc3ccc(N4CCNCC4)cn3)nc1-2", "< 5.00"],
  ["CC(C)(CO)CNS(=O)(=O)c1ccc(NC=C2C(=O)Nc3ccc4ncsc4c32)cc1", "8.00 to 9.00"],
  ["CC(C)(C)c1cnc(CSc2cnc(NC(=O)CCCCCCC(=O)Nc3ccccc3N)s2)o1", "≥ 7.00"]
]}

Consider now this further compound.
q: Reported pIC50, compound NS(=O)(=O)c1ccc(Nc2nc(Nc3ccccn3)c3cnoc3n2)cc1 : ____
a: < 4.00

----------
Below are IC50 measurements against Cyclin-dependent kinase 1 (Homo sapiens) drawn from the literature.

Worked set:
{"columns": ["compound", "result"],
 "data": [
  ["O=C(NCc1ncc[nH]1)c1ccc(-c2c(F)cnc3[nH]c4cnc(-c5cccnc5)cc4c23)cc1", "100 to 1000 nM"],
  ["O=C(NCCNc1ccccn1)c1ccc(-c2c(F)cnc3[nH]c4cnc(-c5cccnc5)cc4c23)cc1", "100 to 1000 nM"],
  ["CCNCCNC(=O)c1ccc(-c2c(F)cnc3[nH]c4cnc(-c5cccnc5)cc4c23)cc1", "100 to 1000 nM"],
  ["O=C1Nc2ccc3ncsc3c2C1=CNc1ccc(S(=O)(=O)NCc2ccncc2)cc1", "11 to 50 nM"]
]}

Working through the 7 compounds below one at a time, give IC50 for each.
1. COCc1cccc2[nH]c(-c3n[nH]c4ncc(-c5ccc(N6CCNCC6)nc5)cc34)nc12
2. CN(C)CCN(C)C(=O)c1ccc(-c2c(F)cnc3[nH]c4cnc(-c5cccnc5)cc4c23)cc1
3. CN(CC1CCCCN1C)C(=O)c1ccc(-c2c(F)cnc3[nH]c4cnc(-c5cccnc5)cc4c23)cc1 (centres unmarked)
4. CN(C)CCNC(=O)c1ccc(-c2ccnc3[nH]c4cnc(-c5cnn(C)c5)cc4c23)cc1
5. CC(C)(CNC(=O)c1ccc(-c2c(F)cnc3[nH]c4cnc(-c5cccnc5)cc4c23)cc1)N1CCCC1
6. CNCc1cncc(-c2cnc3[nH]nc(-c4nc5cc(OC(F)(F)F)ccc5[nH]4)c3c2)c1
7. CN1CCC(NC(=O)c2ccc(-c3c(F)cnc4[nH]c5cnc(-c6cccnc6)cc5c34)cc2)CC1

a:
1: > 10000 nM; 2: 1000 to 5000 nM; 3: 1000 to 5000 nM; 4: 100 to 1000 nM; 5: 1000 to 5000 nM; 6: 0.9 to 1.3 nM; 7: 1000 to 5000 nM
